Target: T1, recombinant soluble human IL-6 receptor (SR344) (human, UniProt P08887 20-344, biotinylated (sites not given) where immobilized via streptavidin or used in phage ELISA)
T1 construct: also called soluble IL-6 receptor; membrane-type IL-6 receptor (when biotinylated and immobilized on the chip)
T1 sequence (looked up): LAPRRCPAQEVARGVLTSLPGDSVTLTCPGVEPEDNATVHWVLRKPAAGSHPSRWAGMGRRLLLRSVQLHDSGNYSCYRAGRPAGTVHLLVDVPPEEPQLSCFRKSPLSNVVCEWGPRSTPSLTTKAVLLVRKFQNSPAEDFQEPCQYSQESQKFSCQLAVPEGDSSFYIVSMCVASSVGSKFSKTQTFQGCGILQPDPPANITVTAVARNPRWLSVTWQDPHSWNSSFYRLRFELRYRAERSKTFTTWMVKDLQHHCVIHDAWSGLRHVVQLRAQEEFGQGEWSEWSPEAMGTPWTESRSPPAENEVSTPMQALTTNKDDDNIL
Experiment: SPR Biacore T100, antibody on protein A/G chip, SR344 analyte, pH 7.4, 37 C
Please respond with reported kon for every item in the list.
One number for each entry, in M⁻¹ s⁻¹.

| Binder | kon, M⁻¹ s⁻¹ |
| --- | --- |
| CLH5/L73 (antibody, IgG1, V domains shown, expressed and purified as IgG) VH: QVQLQESGPGLVKPSETLSLTCAVSGYSISHDHAWSWVRQPPGEGLEWIGHISYSGITNYNPHLKGRVTISRDTSKNQFSLKLSSVTAADTAAYYCARFLARITAHDHWGEGTLVTVSS VL: DIQMTQSPSSLSASVGDSVTITCQASQHISSHLNWYQQKPGKAPELLIYYGSHLHSGVPSRFSGSGSGTDFTFTISSLEAEDAATYYCGQGNRLPYTFGQGTKVEIE | 710000 |

For the 2 binders below, give their kon values.
1. humanized PM1 antibody (wild type, WT) (antibody, human IgG1, kappa, V domains shown, IgG1; also called WT-IgG1; wild type humanized anti-IL-6 receptor antibody) VH: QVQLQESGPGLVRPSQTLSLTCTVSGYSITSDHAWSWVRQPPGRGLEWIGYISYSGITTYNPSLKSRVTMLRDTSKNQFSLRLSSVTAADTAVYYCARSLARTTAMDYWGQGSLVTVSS VL: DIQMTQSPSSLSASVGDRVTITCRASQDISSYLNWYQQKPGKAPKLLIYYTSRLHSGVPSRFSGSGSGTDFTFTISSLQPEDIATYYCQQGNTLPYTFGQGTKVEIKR
2. H170/L82 (antibody, IgG1, V domains shown, expressed and purified as IgG (IgG1); also called H170/L82-IgG1) VH: QVQLQESGPGLVKPSETLSLTCAVSGHSISHHHAHSWVRQPPGEGLEWIGYISYSGITHYNPHLKGRVTISRDTSKNQFSLKLSSVTAADTAAYYCARVLARITAMDHWGEGTLVTVSS VL: DIQMTQSPSSLSASVGDSVTITCQASQDISSHLNWYQQKPGKAPELLIYYGSHLHSGVPSRFSGSGSGTDFTFTISSLEAEDAATYYCGQGNRLPYTFGQGTKVEIE

[510000, 680000]

# lookup: kon of H3pI/L73 (antibody, IgG1, V domains shown, tested as IgG1; also called H3pI/L73-IgG1; H3pl/L73) VH: QVQLQESGPGLVKPSETLSLTCAVSGHSISHDHAHSWVRQPPGEGLEWIGYISYSGITNYNPSLKGRVTISRDTSKNQFSLKLSSVTAADTAAYYCARSLARTTAMDYWGEGTLVTVSS VL: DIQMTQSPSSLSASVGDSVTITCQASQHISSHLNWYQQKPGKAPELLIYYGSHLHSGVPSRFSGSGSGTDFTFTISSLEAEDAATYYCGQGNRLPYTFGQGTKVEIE
540000

meta.source: patent US20180282719A1
